The following are reported log10(IC50) results, target or system human Gal-1 (hGal-1) (Homo sapiens, UniProt P09382).
Parameter value (number): base-10 log of IC50 in nM.

O=C([C@@H](S[C@@H]1O[C@H](CO)[C@H](O)[C@H](n2cc(-c3cc(F)c(F)c(F)c3)nn2)[C@H]1O)C1(O)CCC(F)(F)CC1)N1CC(F)(F)C1 [Example 2.44.227S.]
2.36
CN(CC1CC1)C(=O)[C@@H](S[C@@H]1O[C@H](CO)[C@H](O)[C@H](n2cc(-c3cc(F)c(F)c(F)c3)nn2)[C@H]1O)C1(O)CCC(F)(F)CC1 [Example 2.44.218S.]
1.60
CN(CC1CC1)C(=O)C(S[C@@H]1O[C@H](CO)[C@H](O)[C@H](n2cc(-c3cc(F)c(F)c(F)c3)nn2)[C@H]1O)C(O)c1ccn(C)n1 (some centres unmarked) [Example 2.65.218.]
3.49
CN(CC(F)(F)F)C(=O)[C@H](S[C@@H]1O[C@H](CO)[C@H](O)[C@H](n2cc(-c3cc(F)c(F)c(F)c3)nn2)[C@H]1O)C1(O)CCC1 [Example 2.34.219R.]
4.53

Continue with the compound presented below.
Ask | Fetch value of log10(IC50) on human Gal-1 (hGal-1) (Homo sapiens, UniProt P09382) for CO[C@@H]1[C@@H](n2cc(-c3cc(F)c(F)c(F)c3)nn2)[C@@H](O)[C@@H](CO)O[C@H]1SC(C(=O)N(C)C1CCOCC1)C1(O)CCC(F)(F)CC1 (some centres unmarked) [Example 2.44.213.I.] .
Reply | 2.18

From: patent US12410208B2
